# Test system: T47D
# assay summary: Cytotoxicity against human T47D cells at 10 uM after 48 hrs by SRB assay
# Assay type: functional
# measurement setup: read-out: GI
Give Fulfilled when the value for inhibition of growth at 10 µM is at least 60%. Give Not fulfilled when it is less.

Sample answers from the record:
[
  {
    "smiles entry": "Cc1nc2cc(Nc3nc(Nc4ccc(F)cc4)nc(-c4ccc(Cl)cc4)n3)ccc2n1Cc1ccccc1",
    "assay target": "T47D",
    "category label": "Fulfilled"
  },
  {
    "smiles entry": "Cc1nc2ccc(Nc3nc(Cl)nc(Nc4ccc(F)cc4)n3)cc2n1Cc1ccccc1",
    "assay target": "T47D",
    "category label": "Fulfilled"
  },
  {
    "smiles entry": "Cc1nc2cc(Nc3nc(Nc4ccc(F)cc4)nc(-c4cccs4)n3)ccc2n1Cc1ccccc1",
    "assay target": "T47D",
    "category label": "Fulfilled"
  }
]

Reported inhibition of growth at 10 µM reaches at least 60% for Cc1nc2ccc(Nc3nc(Nc4ccc(F)cc4)nc(N4CCCCC4)n3)cc2n1Cc1ccccc1 ?
Not fulfilled

Reported inhibition of growth at 10 µM reaches at least 60% for Cc1nc2ccc(Nc3nc(NCCO)nc(Nc4ccc(F)cc4)n3)cc2n1Cc1ccccc1 ?
Not fulfilled

* * *

Give measured log10(LC50) for each item. Keep answers brief.
# Tested on: A549
# assay summary: Cytotoxicity against human A549 cells after 48 hrs by SRB assay
# Format: functional
# measurement setup: A549, 48 h, pooled result: one value given for 8 cell lines, strains, targets or settings
Each number you see is log10 of LC50, and the unit inside the log is µM.

[
  {
    "smiles entry": "Cc1nc2cc(Nc3nc(Nc4ccc(F)cc4)nc(N4CCN(C)CC4)n3)ccc2n1Cc1ccccc1",
    "log10(LC50)": 0.88
  }
]

Could I get log10(LC50) for every one of these entries?
1. Cc1nc2ccc(Nc3nc(Cl)nc(Nc4ccc(F)cc4)n3)cc2n1Cc1ccccc1
2. Cc1nc2cc(Nc3nc(Nc4ccc(F)cc4)nc(-c4cccs4)n3)ccc2n1Cc1ccccc1
3. Cc1nc2ccc(Nc3nc(NCCN4CCOCC4)nc(Nc4ccc(F)cc4)n3)cc2n1Cc1ccccc1
4. Cc1nc2cc(Nc3nc(Nc4ccc(F)cc4)nc(N4CCCC4)n3)ccc2n1Cc1ccccc1
5. Cc1nc2cc(Nc3nc(Nc4ccc(F)cc4)nc(-c4ccc(Cl)cc4)n3)ccc2n1Cc1ccccc1

1: 1.84; 2: 1.74; 3: 1.59; 4: 1.16; 5: 1.92

* * *

# assay summary: Cytotoxicity against human COLO205 cells after 48 hrs by SRB assay
# Assay type: functional
# measurement setup: COLO 205, 48 h, pooled result: one value given for 7 cell lines, strains, targets or settings
Friendly reminder: LC50 below 20 µM is true (1), at or above is false (0).

[
  {
    "smiles entry": "COc1ccc(-c2nc(Nc3ccc(F)cc3)nc(Nc3ccc4c(c3)nc(C)n4Cc3ccccc3)n2)cc1",
    "category label": "true (1)"
  },
  {
    "smiles entry": "Cc1nc2cc(Nc3nc(Nc4ccc(F)cc4)nc(-c4ccc(Cl)cc4)n3)ccc2n1Cc1ccccc1",
    "category label": "false (0)"
  },
  {
    "smiles entry": "Cc1nc2cc(Nc3nc(Nc4ccc(F)cc4)nc(N4CCCC4)n3)ccc2n1Cc1ccccc1",
    "category label": "true (1)"
  }
]

Please examine the following record next.
Threshold test, LC50 < 20 µM: Cc1nc2ccc(Nc3nc(NCCN4CCOCC4)nc(Nc4ccc(F)cc4)n3)cc2n1Cc1ccccc1
false (0)
